From: patent US4360511A

experiment: Bioassay: distribution of I-123-labeled compounds in organs of rats after tail vein injection (percent dose/gram, brain/blood ratio); assay type: in vivo, Female Sprague-Dawley rats; settings: rat, iv, blood, 5 minutes post-injection, 0.05 to 1.0 mCi, two rats, read-out: Percent Dose/Gram Blood 5 min.
The threshold is 0.5 %ID/g. Values of tissue uptake at 5 min beneath it are tagged Y; values meeting or exceeding it are tagged N.

Task: Does `[123I]c1ccccc1CNCCc1ccccc1` have tissue uptake at 5 min strictly under 0.5 %ID/g?
Result: Y

Task: Does `CC(C)Nc1ccc([123I])cc1` have tissue uptake at 5 min strictly under 0.5 %ID/g?
Result: Y

Task: Does `[123I]c1ccccc1CCN(CCc1ccccc1)CCc1ccccc1` have tissue uptake at 5 min strictly under 0.5 %ID/g?
Result: N

Task: Does `CCNCc1ccccc1[123I]` have tissue uptake at 5 min strictly under 0.5 %ID/g?
Result: Y

Task: Does CC1CCCC(C)N1Cc1ccccc1[123I] (centres unmarked) have tissue uptake at 5 min strictly under 0.5 %ID/g?
Result: Y

###

assay: Bioassay: distribution of I-123-labeled compounds in organs of rats after tail vein injection (percent dose/gram, brain/blood ratio); assay type: in vivo, Female Sprague-Dawley rats; details: rat, iv, blood, 60 minutes post-injection, 0.05 to 1.0 mCi, two rats, read-out: Percent Dose/Gram Blood 60 min.
Tag: rule met if measured tissue uptake at 1 h is not below 0.2 %ID/g, rule not met if it is.

Task: Evaluate CC(C)Nc1ccc([123I])cc1 [I--123-N--isopropyl-p-iodoaniline] : tissue uptake at 1 h at minimum 0.2 %ID/g?
Result: rule met

Task: Evaluate CC(C)(C)NCc1ccccc1[123I] [I--123-N--t-butyl-o-iodobenzylamine, I-123-N-t-butyl-o-iodobenzylamine] : tissue uptake at 1 h at minimum 0.2 %ID/g?
Result: rule not met

Task: Evaluate [123I]c1ccccc1CNCCc1ccccc1 [I--123-N--β-phenethyl-o-iodobenzylamine] : tissue uptake at 1 h at minimum 0.2 %ID/g?
Result: rule not met

Task: Evaluate Nc1ccc([123I])cc1 [I--123-p-iodoaniline] : tissue uptake at 1 h at minimum 0.2 %ID/g?
Result: rule met

Task: Evaluate N#CC(Nc1ccccc1)c1ccccc1[123I] (stereo not shown) : tissue uptake at 1 h at minimum 0.2 %ID/g?
Result: rule not met

Task: Evaluate CC(Cc1ccccc1)NCc1ccccc1[123I] (racemic) [I--123-N--o-iodobenzylamphetamine (dl)] : tissue uptake at 1 h at minimum 0.2 %ID/g?
Result: rule not met

Task: Evaluate [123I]c1ccccc1CNc1ccccc1 [I--123-N--o-iodobenzylaniline] : tissue uptake at 1 h at minimum 0.2 %ID/g?
Result: rule met

Task: Evaluate CC(C)Nc1ccccc1[123I] [I--123-N--isopropyl-o-iodoaniline] : tissue uptake at 1 h at minimum 0.2 %ID/g?
Result: rule met

Task: Evaluate C[C@@H](N)Cc1ccc([123I])cc1 [I--123-R--p-iodoamphetamine, I-123-R-p-iodoamphetamine] : tissue uptake at 1 h at minimum 0.2 %ID/g?
Result: rule not met

Task: Evaluate [123I]c1ccccc1CN1CCCCC1 [I--123-N--o-iodobenzylpiperidine] : tissue uptake at 1 h at minimum 0.2 %ID/g?
Result: rule met

Task: Evaluate CC(Cc1ccccc1)NCCc1ccccc1[123I] (racemic) : tissue uptake at 1 h at minimum 0.2 %ID/g?
Result: rule not met

Task: Evaluate CC1CCCC(C)N1Cc1ccccc1[123I] (stereo not shown) : tissue uptake at 1 h at minimum 0.2 %ID/g?
Result: rule met

Task: Evaluate [123I]c1ccccc1NCCc1ccccc1 [I--123-N--β-phenethyl-o-iodoaniline] : tissue uptake at 1 h at minimum 0.2 %ID/g?
Result: rule met

Task: Evaluate `Cc1cccc(C)c1NC(=O)CNCCc1ccccc1[123I]` : tissue uptake at 1 h at minimum 0.2 %ID/g?
Result: rule met

Task: Evaluate Cc1c([123I])c(=O)n(-c2ccccc2)n1C [I--123-iodoantipyrine, I-123 labeled 4-iodoantipyrine, reference compound] : tissue uptake at 1 h at minimum 0.2 %ID/g?
Result: rule met

Task: Evaluate CC(C)N[C@@H](C)Cc1ccc([123I])cc1 [I--123-S--N--isopropyl-p-iodoamphetamine, I-123-S-N-isopropyl-p-iodoamphetamine] : tissue uptake at 1 h at minimum 0.2 %ID/g?
Result: rule not met

###

Answer each item with its documented tissue uptake at 5 min.
Experiment: Bioassay: distribution of I-123-labeled compounds in organs of rats after tail vein injection (percent dose/gram, brain/blood ratio)
Assay type: in vivo, Female Sprague-Dawley rats
Conditions: rat, iv, brain, 5 minutes post-injection, 0.05 to 1.0 mCi, two rats, read-out: Percent Dose/Gram Brain 5 min.
Description: Female Sprague-Dawley rats weighing approximately 150 g were anesthetized with sodium pentobarbital and were injected in a tail vein with from 0.05 to 1.0 mCi (in a volume of 0.2 to 0.5 ml) of the I-123-labeled compound. […] Two animals each were sacrificed at 5 minutes and 60 minutes post-injection, the tails discarded and the amount of activity in various organs determined. […] The ratio of brain-to-blood activity was calculated as a percent of administered dose per gram.
Only the number, expressed in %ID/g, is required.

Task: # query: tissue uptake at 5 min of entry CC1CCCC(C)N1Cc1ccccc1[123I] (centres unmarked)
Result: 1.01

Task: # query: tissue uptake at 5 min of entry `Cc1cccc(C)c1NC(=O)CNCCc1ccccc1[123I]`
Result: 0.73

Task: # query: tissue uptake at 5 min of entry CC(Cc1ccccc1)NCc1ccccc1[123I] (racemic)
Result: 1.06

Task: # query: tissue uptake at 5 min of entry N#CC(N)c1ccccc1[123I] (centres unmarked)
Result: 0.58

Task: # query: tissue uptake at 5 min of entry `[123I]c1ccccc1CCN1CCCCC1`
Result: 1.08

###

test: Bioassay: distribution of I-123-labeled compounds in organs of rats after tail vein injection (percent dose/gram, brain/blood ratio); type: in vivo, Female Sprague-Dawley rats; conditions: rat, iv, heart, 60 minutes post-injection, 0.05 to 1.0 mCi, two rats, read-out: Percent Dose/Gram Heart 60 min.
Answer each item with its documented tissue uptake at 1 h.
Only the number, expressed in %ID/g, is required.

Task: # query: tissue uptake at 1 h of entry `[123I]c1ccc(N(Cc2ccccc2)Cc2ccccc2)cc1`
Result: 0.46

Task: # query: tissue uptake at 1 h of entry `CCCNCCc1ccccc1[123I]`
Result: 0.23

Task: # query: tissue uptake at 1 h of entry `CCCNCc1ccccc1[123I]`
Result: 0.59

Task: # query: tissue uptake at 1 h of entry `[123I]c1ccc(NCc2ccccc2)cc1`
Result: 0.59

Task: # query: tissue uptake at 1 h of entry CC(Cc1ccccc1)Nc1ccccc1[123I] (racemic)
Result: 0.57

Task: # query: tissue uptake at 1 h of entry `CCNCc1ccccc1[123I]`
Result: 0.44

Task: # query: tissue uptake at 1 h of entry `[123I]c1ccccc1CCNCCc1ccccc1`
Result: 0.26

Task: # query: tissue uptake at 1 h of entry `Cc1cccc(C)c1NC(=O)CNCCc1ccccc1[123I]`
Result: 0.21

Task: # query: tissue uptake at 1 h of entry `[123I]c1ccccc1CCN(CCc1ccccc1)CCc1ccccc1`
Result: 0.62

Task: # query: tissue uptake at 1 h of entry CC1CCC(C)N1Cc1ccccc1[123I] (stereo not shown)
Result: 0.46

Task: # query: tissue uptake at 1 h of entry `CC(C)NCCc1ccccc1[123I]`
Result: 0.27

Task: # query: tissue uptake at 1 h of entry `CC(C)N[C@H](C)Cc1ccc([123I])cc1`
Result: 0.87

Task: # query: tissue uptake at 1 h of entry Cc1c([123I])c(=O)n(-c2ccccc2)n1C [I--123-iodoantipyrine, I-123 labeled 4-iodoantipyrine, reference compound]
Result: 0.53

Task: # query: tissue uptake at 1 h of entry `Nc1ccc([123I])cc1`
Result: 0.8

Task: # query: tissue uptake at 1 h of entry `[123I]c1ccccc1CNCCc1ccccc1`
Result: 0.15

Task: # query: tissue uptake at 1 h of entry `C[C@@H](N)Cc1ccc([123I])cc1`
Result: 1.09

Task: # query: tissue uptake at 1 h of entry `CCN(Cc1ccccc1I)Cc1ccccc1[123I]`
Result: 0.5

Task: # query: tissue uptake at 1 h of entry `Nc1ccccc1[123I]`
Result: 0.17

Task: # query: tissue uptake at 1 h of entry `[123I]c1ccccc1NCCc1ccccc1`
Result: 0.33

###

Answer each item with its documented tissue uptake at 1 h.
assay: Bioassay: distribution of I-123-labeled compounds in organs of rats after tail vein injection (percent dose/gram, brain/blood ratio); assay type: in vivo, Female Sprague-Dawley rats; conditions: rat, iv, brain, 60 minutes post-injection, 0.05 to 1.0 mCi, two rats, read-out: Percent Dose/Gram Brain 60 min.
Only the number, expressed in %ID/g, is required.

Task: # query: tissue uptake at 1 h of entry `[123I]c1ccccc1CNc1ccccc1`
Result: 0.17

Task: # query: tissue uptake at 1 h of entry CC(Cc1ccccc1)Nc1ccccc1[123I] (racemic)
Result: 0.41

Task: # query: tissue uptake at 1 h of entry `Nc1ccccc1[123I]`
Result: 0.03

Task: # query: tissue uptake at 1 h of entry `CC(C)Nc1ccc([123I])cc1`
Result: 0.26

Task: # query: tissue uptake at 1 h of entry `[123I]c1ccccc1CNCCc1ccccc1`
Result: 0.14

Task: # query: tissue uptake at 1 h of entry `CC(C)NCCc1ccccc1[123I]`
Result: 0.67

Task: # query: tissue uptake at 1 h of entry N#CC(Nc1ccccc1)c1ccccc1[123I] (stereo not drawn)
Result: 0.14

Task: # query: tissue uptake at 1 h of entry `CCCNCc1ccccc1[123I]`
Result: 0.59

Task: # query: tissue uptake at 1 h of entry `CC(C)N[C@@H](C)Cc1ccc([123I])cc1`
Result: 1.93

Task: # query: tissue uptake at 1 h of entry `CCN(Cc1ccccc1I)Cc1ccccc1[123I]`
Result: 0.25

Task: # query: tissue uptake at 1 h of entry CC(Cc1ccccc1)NCc1ccccc1[123I] (racemic)
Result: 0.36

Task: # query: tissue uptake at 1 h of entry `C[C@@H](N)Cc1ccc([123I])cc1`
Result: 2.07

Task: # query: tissue uptake at 1 h of entry Cc1c([123I])c(=O)n(-c2ccccc2)n1C [I--123-iodoantipyrine, I-123 labeled 4-iodoantipyrine, reference compound]
Result: 0.17

Task: # query: tissue uptake at 1 h of entry `CCCNCCc1ccccc1[123I]`
Result: 0.44

Task: # query: tissue uptake at 1 h of entry `CC(C)(C)NCc1ccccc1[123I]`
Result: 0.89
